Target: PI 3-kinase beta (Homo sapiens)
Sequence (P42338 whole entry): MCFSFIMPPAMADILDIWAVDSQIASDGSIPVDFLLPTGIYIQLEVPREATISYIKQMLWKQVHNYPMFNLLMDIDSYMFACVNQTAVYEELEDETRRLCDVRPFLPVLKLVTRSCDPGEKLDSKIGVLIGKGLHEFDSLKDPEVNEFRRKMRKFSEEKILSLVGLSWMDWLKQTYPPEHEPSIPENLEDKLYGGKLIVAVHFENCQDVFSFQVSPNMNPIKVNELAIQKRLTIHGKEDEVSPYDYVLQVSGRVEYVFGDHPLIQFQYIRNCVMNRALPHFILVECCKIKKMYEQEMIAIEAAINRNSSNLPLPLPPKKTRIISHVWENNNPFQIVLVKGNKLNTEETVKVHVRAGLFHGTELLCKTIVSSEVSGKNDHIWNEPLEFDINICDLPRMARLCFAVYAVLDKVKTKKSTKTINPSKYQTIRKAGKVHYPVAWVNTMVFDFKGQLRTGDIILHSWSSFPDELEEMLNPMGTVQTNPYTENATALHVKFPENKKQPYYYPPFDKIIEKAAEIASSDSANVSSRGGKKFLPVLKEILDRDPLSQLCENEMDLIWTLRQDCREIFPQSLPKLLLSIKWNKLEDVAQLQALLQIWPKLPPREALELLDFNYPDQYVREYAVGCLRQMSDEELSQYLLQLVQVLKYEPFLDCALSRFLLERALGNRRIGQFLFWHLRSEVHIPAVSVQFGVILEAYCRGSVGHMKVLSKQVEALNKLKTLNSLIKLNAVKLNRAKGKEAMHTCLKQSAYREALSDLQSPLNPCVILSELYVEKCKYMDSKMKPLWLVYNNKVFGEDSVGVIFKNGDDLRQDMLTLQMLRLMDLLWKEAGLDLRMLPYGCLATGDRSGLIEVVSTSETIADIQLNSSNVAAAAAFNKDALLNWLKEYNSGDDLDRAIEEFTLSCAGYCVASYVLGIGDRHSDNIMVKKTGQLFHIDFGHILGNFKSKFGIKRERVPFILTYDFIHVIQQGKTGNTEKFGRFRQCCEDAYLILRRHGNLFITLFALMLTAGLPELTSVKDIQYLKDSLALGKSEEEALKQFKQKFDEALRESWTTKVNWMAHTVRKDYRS
Sequence (Q63787 whole entry partner): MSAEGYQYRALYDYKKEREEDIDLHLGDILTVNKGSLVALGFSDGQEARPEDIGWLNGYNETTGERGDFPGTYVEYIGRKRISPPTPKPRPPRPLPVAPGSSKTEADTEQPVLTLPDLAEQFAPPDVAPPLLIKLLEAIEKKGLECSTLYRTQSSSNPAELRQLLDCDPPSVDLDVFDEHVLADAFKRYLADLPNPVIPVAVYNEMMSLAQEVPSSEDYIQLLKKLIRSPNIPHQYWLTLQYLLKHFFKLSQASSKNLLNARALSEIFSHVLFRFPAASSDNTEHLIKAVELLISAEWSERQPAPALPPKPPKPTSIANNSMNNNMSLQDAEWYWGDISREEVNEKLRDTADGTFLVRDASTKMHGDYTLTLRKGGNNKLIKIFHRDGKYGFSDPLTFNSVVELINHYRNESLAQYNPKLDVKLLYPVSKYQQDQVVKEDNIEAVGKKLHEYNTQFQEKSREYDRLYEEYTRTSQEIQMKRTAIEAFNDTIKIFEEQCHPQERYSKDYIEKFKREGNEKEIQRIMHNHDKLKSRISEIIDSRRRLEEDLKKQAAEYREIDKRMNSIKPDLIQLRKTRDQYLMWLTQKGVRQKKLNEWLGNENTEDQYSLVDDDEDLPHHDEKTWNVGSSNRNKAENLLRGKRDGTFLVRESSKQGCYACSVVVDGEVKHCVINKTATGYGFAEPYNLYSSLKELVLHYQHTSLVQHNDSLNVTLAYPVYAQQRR
Test: Cellular assay I2, p-AKT (Ser473) in Rat-1 cells, HTRF format
Type: cell-based
Conditions: asterisked data: version I2 (HTRF format), read-out: Assay I PI3Kβ IC50
OBSERVATION_TYPE: IC50 (nM)
Just the number please, in nM, no unit attached.

input: Give the reported IC50 for Cc1ncc(-c2nc(-c3cc(S(=O)(=O)N[C@H]4C[C@@H](O)C4)ccc3C)cnc2N)s1 [Example 43a] (system: PI 3-kinase beta (Homo sapiens)).
output: 4560

input: For PI 3-kinase beta (Homo sapiens), provide IC50 of Cc1ncc(-c2nc(-c3cc(S(=O)(=O)NCC4(CO)CCOCC4)ccc3C)cnc2N)s1 [Example 45.9] please.
output: 880

input: IC50 of Cc1ncc(-c2nc(-c3cc(S(=O)(=O)NCC4CCCCO4)ccc3C)cnc2N)s1 (centres unmarked) [Example 45.4] on PI 3-kinase beta (Homo sapiens)?
output: 2130

input: Query the reported IC50 for PI 3-kinase beta (Homo sapiens); item: Cc1ncc(-c2nc(-c3cc(S(=O)(=O)N[C@H]4C[C@H](O)C4)ccc3C)cnc2N)s1 [Example 43b]
output: 2950

====

Target: PI 3-kinase delta (Homo sapiens)
Sequence (O00329 whole entry): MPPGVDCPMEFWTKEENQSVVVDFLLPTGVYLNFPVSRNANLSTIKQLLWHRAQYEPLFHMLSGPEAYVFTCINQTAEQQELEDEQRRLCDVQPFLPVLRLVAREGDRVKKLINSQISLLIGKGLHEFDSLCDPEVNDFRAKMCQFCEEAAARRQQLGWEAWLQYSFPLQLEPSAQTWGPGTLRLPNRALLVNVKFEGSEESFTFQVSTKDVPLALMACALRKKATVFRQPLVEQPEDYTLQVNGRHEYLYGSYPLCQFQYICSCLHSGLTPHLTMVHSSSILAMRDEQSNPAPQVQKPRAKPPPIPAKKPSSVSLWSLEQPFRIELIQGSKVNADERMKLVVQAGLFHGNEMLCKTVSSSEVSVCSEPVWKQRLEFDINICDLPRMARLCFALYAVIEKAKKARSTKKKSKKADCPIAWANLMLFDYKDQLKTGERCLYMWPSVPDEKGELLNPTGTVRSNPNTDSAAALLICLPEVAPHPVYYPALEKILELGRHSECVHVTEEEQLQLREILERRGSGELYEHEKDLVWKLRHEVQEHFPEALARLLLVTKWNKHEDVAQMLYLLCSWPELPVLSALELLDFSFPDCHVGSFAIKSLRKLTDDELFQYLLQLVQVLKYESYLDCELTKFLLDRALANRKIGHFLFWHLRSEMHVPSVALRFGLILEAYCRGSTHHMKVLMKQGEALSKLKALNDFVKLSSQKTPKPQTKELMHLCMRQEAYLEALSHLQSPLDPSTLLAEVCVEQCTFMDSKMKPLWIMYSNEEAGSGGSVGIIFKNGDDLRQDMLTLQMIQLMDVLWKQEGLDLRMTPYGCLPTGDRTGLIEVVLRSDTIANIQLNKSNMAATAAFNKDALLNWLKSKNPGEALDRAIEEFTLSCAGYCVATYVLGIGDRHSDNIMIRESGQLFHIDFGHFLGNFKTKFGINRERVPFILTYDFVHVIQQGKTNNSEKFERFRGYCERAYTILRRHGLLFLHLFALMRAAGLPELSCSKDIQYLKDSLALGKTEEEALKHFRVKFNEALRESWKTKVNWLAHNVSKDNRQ
Sequence (P27986 461-568 partner): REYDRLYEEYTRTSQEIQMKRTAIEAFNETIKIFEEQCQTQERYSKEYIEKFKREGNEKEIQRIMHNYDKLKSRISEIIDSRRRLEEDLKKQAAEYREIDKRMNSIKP
Assay: TR-FRET Adapta assay, assay F
pIC50: −log10 of the molar value. Where a name gives a salt, the structure may show the parent alone.
Everything with pIC50 lower than 6 is 0.0; everything else, including exactly 6, is 1.0.

input: Record Cc1ncc(-c2nc(-c3cc(S(=O)(=O)NC[C@H]4C[C@H](O)C4)ccc3C)cnc2N)s1 [Example 20b] ; criterion: pIC50 no lower than 6. Met?
output: 1.0

input: Quick check, pIC50 >= 6? Cc1ccc(S(=O)(=O)N[C@@H]2CNC[C@H]2O)cc1-c1cnc(N)c(-n2cncn2)n1 [Example 127.60, trifluoroacetic acid salt]
output: 0.0

input: Hi team, for Cc1cc(-c2nc(-c3cc(S(=O)(=O)N[C@H]4CCC[C@@H]4N)ccc3C)cnc2N)ccn1 , is the recorded pIC50 at or above 6?
output: 0.0

input: Textbook exercise: given the entry Cc1ncc(-c2nc(-c3cc(S(=O)(=O)N[C@H]4C[C@H](O)C4)ccc3C)cnc2N)s1 [Example 43b] , state whether its pIC50 is greater than or equal to 6.
output: 0.0

input: Given the entry Cc1ccc(S(=O)(=O)NCC2COCCN2C)cc1-c1cnc(N)c(-c2cn(C)nc2C)n1 (single isomer, unassigned) , answer whether its pIC50 meets or surpasses 6.
output: 1.0

input: Can Cc1cc(-c2nc(-c3cc(S(=O)(=O)N[C@H]4CC[C@H](O)CC4)ccc3C)cnc2N)ccn1 be said to have pIC50 at or above 6?
output: 0.0

====

Target: PI 3-kinase gamma (Homo sapiens)
Sequence (P48736 whole entry): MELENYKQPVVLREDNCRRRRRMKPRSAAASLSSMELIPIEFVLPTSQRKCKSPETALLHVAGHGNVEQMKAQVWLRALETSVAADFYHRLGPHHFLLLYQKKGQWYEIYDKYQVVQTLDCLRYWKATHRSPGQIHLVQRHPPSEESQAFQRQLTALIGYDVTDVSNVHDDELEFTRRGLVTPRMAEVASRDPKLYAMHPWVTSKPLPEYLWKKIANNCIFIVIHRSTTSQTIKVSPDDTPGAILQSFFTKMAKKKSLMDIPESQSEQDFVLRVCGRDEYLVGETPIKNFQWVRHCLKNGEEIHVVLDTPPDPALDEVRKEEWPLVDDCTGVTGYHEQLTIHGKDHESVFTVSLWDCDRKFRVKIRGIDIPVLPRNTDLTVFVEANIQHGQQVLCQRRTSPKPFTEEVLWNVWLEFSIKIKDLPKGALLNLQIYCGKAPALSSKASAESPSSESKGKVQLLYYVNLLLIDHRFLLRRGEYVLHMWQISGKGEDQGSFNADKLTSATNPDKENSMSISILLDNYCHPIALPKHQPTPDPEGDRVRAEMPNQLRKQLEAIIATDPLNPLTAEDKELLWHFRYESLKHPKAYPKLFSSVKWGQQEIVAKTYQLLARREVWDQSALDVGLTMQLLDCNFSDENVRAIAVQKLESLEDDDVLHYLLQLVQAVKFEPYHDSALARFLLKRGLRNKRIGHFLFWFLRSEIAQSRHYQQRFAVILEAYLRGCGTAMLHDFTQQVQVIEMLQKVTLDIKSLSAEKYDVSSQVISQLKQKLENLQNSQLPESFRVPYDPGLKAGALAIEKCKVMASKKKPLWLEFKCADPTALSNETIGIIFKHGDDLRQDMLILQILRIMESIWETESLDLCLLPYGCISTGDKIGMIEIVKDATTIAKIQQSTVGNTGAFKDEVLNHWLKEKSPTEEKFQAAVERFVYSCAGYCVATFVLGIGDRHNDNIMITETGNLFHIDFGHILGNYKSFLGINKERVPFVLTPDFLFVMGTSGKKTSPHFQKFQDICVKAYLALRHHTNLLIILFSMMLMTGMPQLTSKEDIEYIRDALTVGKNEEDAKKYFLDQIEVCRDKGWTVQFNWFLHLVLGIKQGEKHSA
Assay: Cellular U937 AKT assay K1 (MSD)
Assay type: cell-based
Conditions: U937 cells, K1 format; read-out: Assay K1 PI3Kγ IC50
Exercise: for every item that follows, state its recorded pIC50.
Formally, pIC50 is defined as -log10 of the concentration c, with c in mol/L.

input: Data request, read-out pIC50, for Cc1ccc(S(=O)(=O)NC[C@](C)(O)C(F)(F)F)cc1-c1cnc(N)c(-n2cncn2)n1
output: 7.09

input: So what's the measured pIC50 for this one? Cc1ccc(S(=O)(=O)N2CC(C)(O)C2)cc1-c1cnc(N)c(-n2cncn2)n1
output: 6.15

input: Could you share which pIC50 value was measured for CCc1noc(-c2nc(-c3cc(S(=O)(=O)N[C@H]4CC[C@H](O)CC4)ccc3C)cnc2N)n1 ?
output: 6.99

input: Entry under review: Cc1ccc(S(=O)(=O)N[C@H]2CC[C@H](O)CC2)cc1-c1cnc(N)c(-n2cccn2)n1 . Reported pIC50?
output: 7.55

input: Can you look up the measured pIC50 of Cc1ccc(S(=O)(=O)NC[C@H]2C[C@@H](O)C2)cc1-c1cnc(N)c(-c2cc(C3CC3)no2)n1 for me?
output: 7.13

input: So what does the record say about pIC50 for Cc1ccc(S(=O)(=O)NCC(=O)C(C)(C)C)cc1-c1cnc(N)c(-n2cncn2)n1 ?
output: 7.29

input: // pIC50 lookup, key: Cc1ccc(S(=O)(=O)NC[C@H]2CCCO2)cc1-c1cnc(N)c(-n2cncn2)n1
output: 6.19
